- System: K562
- Method summary: NCI tumour cell line growth inhibition, 48 h
The source made the active and inactive calls. Cut-off read from the data, not from the text of the source: active = GI50 up to about 1.1 µM and inactive = higher.
Measure: GI50

Field: example entries. Status: answers known.
O=c1/c(=C/c2ccco2)sc2nc3ccccc3n12 | > 10 µM (inactive)
C/C(=N\[N+](C)(C)C)C(c1ccccc1)C1(c2ccccc2)C(c2ccccc2)=C1c1ccccc1 (stereo not given) | > 100 µM (inactive)
Cc1cc(C)nc(NS(=O)(=O)c2ccc(NC(=O)c3cccc4cc5ccccc5nc34)cc2)n1 | 24.5 µM (inactive)
CCC1(OC(C)=O)C(=O)OCc2c1cc1n(c2=O)Cc2cc3ccccc3nc2-1 (stereo not given) | 3.1 µM (inactive)

Input line: # returns recorded GI50 (system: K562) for N#CC(c1cc2c(cc1Br)OCO2)N1CCOCC1 (stereo not given)
Output line: 3.32 µM (inactive)

Input line: Param item: COc1ccc2c(c1)c(=O)c1c(NCCN(C)C)ccc3nnn2c31
Output line: 1.6 µM (inactive)

Input line: Param item: N=C(N)C1=C(O)NC(=O)N(C2CCCCC2)C1
Output line: > 100 µM (inactive)

Input line: Param item: COc1ccc([C@H]2[C@H]3COC(=O)[C@H]3C(C#N)=C3Sc4ccccc4N32)cc1
Output line: 41.4 µM (inactive)

Input line: Param item: COc1ccc(-c2oc3c(CC(=O)O)cccc3c(=O)c2OC)cc1
Output line: > 100 µM (inactive)

Input line: Param item: O=[N+]([O-])c1ccc(C[S+]([O-])Cc2ccccc2)cc1 (stereo not given)
Output line: > 100 µM (inactive)

====

- Tested on: SK-MEL-2
- Method summary: NCI tumour cell line growth inhibition, 48 h
The source made the active and inactive calls. No stated cut-off is given here; in the data, active = GI50 up to about 1.1 µM and inactive = higher.
Measure: GI50

Field: example entries. Status: answers known.
COc1ccc(Br)c(/C=N\c2cccc3cc(OC)c(OC)cc23)c1 | 42.3 µM (inactive)
CC(=N/NC(=S)N(C)C)/C(=N\NC(=S)N(C)C)c1ccccc1 | 1.99 µM (inactive)
C/C(=N\[N+](C)(C)C)C(c1ccccc1)C1(c2ccccc2)C(c2ccccc2)=C1c1ccccc1 (centres undefined) | > 100 µM (inactive)

Alright, here's another compound for you.
Input line: Reported GI50 for COC1C=COC2(C)Oc3c(C)c(O)c4c(O)c(c(C5SCCS5)c(O)c4c3C2=O)NC(=O)C(C)=C/C=C\C(C)C2OC(C)(C)OC(C2C)C(C)C(OC(C)=O)C1C (centres undefined) : what is it?
Output line: 5.79 µM (inactive)

====

- Test system: BT-549
- Method summary: NCI tumour cell line growth inhibition, 48 h
Activity calls are given as the source filed them. Rule as the data show it: active = GI50 up to about 1.1 µM and inactive = higher.
Measure: GI50

O=C1/C(=C/c2ccc(Cl)cc2)CCCc2ccccc21 | 20.3 µM (inactive)
CC(=S)NC1C(Oc2ccc3c(C)cc(=O)oc3c2)OC(CO)C(O)C1O (configuration not stated) | > 100 µM (inactive)
CN(C)CCCNCc1cccc2ccccc12 | > 100 µM (inactive)
CO[C@]12C[C@H](CNC(=O)c3ccc[nH]3)O[C@H]1NC(=O)N2 | > 100 µM (inactive)
CC(=O)OC1COC(Nn2c(=O)[nH]c3ccccc3c2=O)C(OC(C)=O)C1OC(C)=O (configuration not stated) | > 100 µM (inactive)
NCC(=O)Nc1ccc(Cl)cc1C(=O)c1ccc[nH]1 | 70.3 µM (inactive)
CCN(CC)C(=O)N1CN(c2ccccc2)C2(CCN(CCCSc3ccc(F)cc3)CC2)C1=O | 13.5 µM (inactive)
N#CC(c1cc(Cl)ncn1)c1nc2ccccc2s1 (configuration not stated) | 5 µM (inactive)
C#CCNC(Cc1ccccc1)C(=O)O (configuration not stated) | > 100 µM (inactive)
c1ccc(CSc2nc(N3CCCCC3)c3cn[nH]c3n2)cc1 | 16.5 µM (inactive)

Input line: Reported GI50 for CC(=O)O[C@@H]1O[Si](C(C)(C)C)(C(C)(C)C)[C@H](C)[C@H]1C : what is it?
Output line: > 100 µM (inactive)

Input line: Param item: O=C1C(Cl)=C(N2CCN(CCOCCO)CC2)C(=O)c2ncccc21
Output line: > 10 µM (inactive)

====

- Tested on: SF-268
- Method summary: NCI tumour cell line growth inhibition, 48 h
Calls of active or inactive are those of the source. Rule as the data show it: active = GI50 up to about 1.1 µM and inactive = higher.
Form entry, call: pick from true (1) = active, false (0) = inactive

CS(=O)(=O)C[S+]([O-])C[S+]([O-])C[S+]([O-])CC(NC(=O)CCC(N)C(=O)O)C(=O)O (centres undefined) | false (0)
CN(C)c1ccc(/C=C(\NC(=O)c2ccccc2)C(=O)NCC(=O)O)cc1 | false (0)

Input line: # fetch the recorded call for CCN1CCN=C2c3cc(OC)ccc3Nc3c([N+](=O)[O-])ccc1c32 here
Output line: true (1)

Input line: Param item: OC1CC2CCC(C1)N2CCCN1c2ccccc2Sc2ccc(Cl)cc21 (centres undefined)
Output line: false (0)

====

Attribute: GI50
- Test system: SK-MEL-5
- Method summary: NCI tumour cell line growth inhibition, 48 h
The source made the active and inactive calls. Cut-off read from the data, not from the text of the source: active = GI50 up to about 1.1 µM and inactive = higher. Square brackets hold non-standard residues; d marks the D form. Peptide text beside a SMILES is read from it. * marks the point of attachment. X26 = COC1=CC(=O)N(C(=O)[C@@H](O*)C(C)C)[C@H]1Cc1ccccc1; Bn2Val = CC(C)[C@@H](C(=O)*)N(Cc1ccccc1)Cc1ccccc1; NMeV = CN[C@H](C(=O)O)C(C)C; dNMeA = CN[C@H](C)C(=O)O

Field: example entries. Status: answers known.
CCN1CCN=C2c3cc(OC)ccc3Nc3c([N+](=O)[O-])ccc1c32 | 1.17 µM (inactive)
COC1C=COC2(C)Oc3c(C)c(O)c4c(O)c(c(C5SCCS5)c(O)c4c3C2=O)NC(=O)C(C)=C/C=C\C(C)C2OC(C)(C)OC(C2C)C(C)C(OC(C)=O)C1C (stereo unspecified) | 3.77 µM (inactive)
COC1=CC(=O)N(C(=O)[C@@H](OC(=O)[C@@H](C)N(C)C(=O)[C@@H]2CCCN2C(=O)[C@H](C(C)C)N(C)C(=O)[C@@H](NC(=O)[C@H](C(C)C)N(Cc2ccccc2)Cc2ccccc2)C(C)C)C(C)C)[C@H]1Cc1ccccc1 (Bn2Val-V[NMeV]P[dNMeA]-X26) | 23.9 µM (inactive)
O=[N+]([O-])/C(Cl)=C(/C(Cl)=C(Cl)Cl)N1CCCCC1 | 6.44 µM (inactive)
O=S(=O)(c1ccccc1)C(c1ccc2ccccc2n1)S(=O)(=O)c1ccccc1 | > 100 µM (inactive)

Alright, here's another compound for you.
Input line: Reported GI50 for Cc1nc2c(=O)n(-c3ccccc3)c3ccccc3c2o1 : what is it?
Output line: > 100 µM (inactive)

====

- System: SK-OV-3
- Method summary: NCI tumour cell line growth inhibition, 48 h
Calls of active or inactive are those of the source. Cut-off read from the data, not from the text of the source: active = GI50 up to about 1.1 µM and inactive = higher.
Attribute: GI50

Field: example entries. Status: answers known.
COc1cc2nc3n(c(=O)c2cc1OC)CCCCC3 | > 100 µM (inactive)
C[C@]12CC[C@H](OCCC#N)CC1=CC[C@@H]1C2CC[C@]2(C)/C(=N/OCCC#N)CCC12 (stereo partly specified) | > 63 µM (inactive)
COc1ccc(/N=N/c2c(-c3ccccc3)nn(C(=O)CC(=O)Nc3cccc(Cl)c3)c2-c2ccccc2)cc1 | > 100 µM (inactive)
CCC1(OC(C)=O)C(=O)OCc2c1cc1n(c2=O)Cc2cc3ccccc3nc2-1 (stereo unspecified) | 2.28 µM (inactive)

Input line: Reported GI50 for CC(=O)OC[C@@H]1[C@H]2CC(=O)O[C@H]2C[C@H]1OC(C)=O : what is it?
Output line: > 100 µM (inactive)

Input line: Param item: CCOC(=O)c1ccc(/N=C2\Sc3nc4ccccc4n3\C2=N\c2ccc(C(=O)OCC)cc2)cc1
Output line: 40.8 µM (inactive)

====

- System: SK-MEL-2
- Method summary: NCI tumour cell line growth inhibition, 48 h
Activity calls are given as the source filed them. Cut-off read from the data, not from the text of the source: active = GI50 up to about 1.1 µM and inactive = higher. Square brackets hold non-standard residues; d marks the D form. Peptide text beside a SMILES is read from it. * marks the point of attachment. X26 = COC1=CC(=O)N(C(=O)[C@@H](O*)C(C)C)[C@H]1Cc1ccccc1; Bn2Val = CC(C)[C@@H](C(=O)*)N(Cc1ccccc1)Cc1ccccc1; NMeV = CN[C@H](C(=O)O)C(C)C; dNMeA = CN[C@H](C)C(=O)O
Form entry, call: pick from true (1) for active, false (0) for inactive

Example entries begin here.
CCOC(=O)c1ccc(/N=C2\Sc3nc4ccccc4n3\C2=N\c2ccc(C(=O)OCC)cc2)cc1 | false (0)
COc1cccc(N2CCc3c(C)c(C#N)c4nc5ccccc5n4c32)c1 | false (0)
CCC1(OC(C)=O)C(=O)OCc2c1cc1n(c2=O)Cc2cc3ccccc3nc2-1 (stereo unspecified) | false (0)

Input line: # fetch the recorded call for C#CC(O)/C=C/C(O)CCCC(O)CC#CC(O)C#CC(O)CCCC(O)/C=C/CCCCCC(=O)CCCCCCCCCCCCCC(O)C(O)C#CC(=O)O (stereo unspecified) here
Output line: false (0)

Input line: Param item: NNC(=O)C(=O)N/N=C1\CCCC1C(=O)CCC(=O)Nc1cccc(Cl)c1 (stereo unspecified)
Output line: false (0)

Input line: Param item: COC1=CC(=O)N(C(=O)[C@@H](OC(=O)[C@@H](C)N(C)C(=O)[C@@H]2CCCN2C(=O)[C@H](C(C)C)N(C)C(=O)[C@@H](NC(=O)[C@H](C(C)C)N(Cc2ccccc2)Cc2ccccc2)C(C)C)C(C)C)[C@H]1Cc1ccccc1 (Bn2Val-V[NMeV]P[dNMeA]-X26)
Output line: false (0)
